Target: T1, PF4/heparin complex (human PF4 complexed with heparin) (human, UniProt P02776 32-101)
T1 construct: Multimeric complex of PF4 with heparin (not a protein); In the EIAs: PF4 captured on biotinylated heparin on streptavidin plates; In the SRA: platelets with 0.2 U/mL heparin; also called PF4 and heparin complexes
T1 sequence: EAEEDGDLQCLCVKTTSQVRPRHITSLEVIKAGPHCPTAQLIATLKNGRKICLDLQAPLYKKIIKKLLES
Assay: BLI (Octet), biotinylated PF4/heparin on streptavidin sensors, scFv 1 µg/mL
READOUT KIND: average binding response (wavelength shift) (nm)
Reply with just the number (in nm).

Consider the reported average binding response (wavelength shift) for these binders:
Wildtype scFv (KKO-derived single chain variable fragment) (scFv, VL-(G4S)3 linker-VH; expressed in E. coli BL21 from pADL-22c, purified on Ni-NTA as histidine-tagged scFv, about 28 kDa; also called WT; KKO-scFv; not shown: histidine tag from the pADL-22c vector) scFv: DIQMIQSQKFMSTSVGDRVTVTCKASQNVGTNVAWYQQKPGQSPNALIYSASYRYSGVPDRFTGSGSGTDFTLTITNVQSEDLADYFCQQYNSYPLTFGTGTKLDLKGGGGSGGGGSGGGGSVQLQQSGAELVKPGASVKLSCKASGYTFTNYFIYWVKQRPGQGLEWIGEINPRNGDTDFNEKFESRATLTVDKSSSTAYMQLSSLTSEDSAIYYCTRSPYGNNYGFTYWGQGTLVTVSA | 0.0758
Mutant B scFv, scFv(R18K, N152K, D180N) (scFv, VL-linker-VH; histidine-tagged, from E. coli BL21; also called Mut B; not shown: histidine tag from the pADL-22c vector) scFv: DIQMIQSQKFMSTSVGDKVTVTCKASQNVGTNVAWYQQKPGQSPNALIYSASYRYSGVPDRFTGSGSGTDFTLTITNVQSEDLADYFCQQYNSYPLTFGTGTKLDLKGGGGSGGGGSGGGGSVQLQQSGAELVKPGASVKLSCKASGYTFTKYFIYWVKQRPGQGLEWIGEINPRNGDTNFNEKFESRATLTVDKSSSTAYMQLSSLTSEDSAIYYCTRSPYGNNYGFTYWGQGTLVTVSA | 0.379
Mutant E scFv, scFv(Y156H, D180G, Q233P) (scFv, VL-linker-VH; histidine-tagged, from E. coli BL21; also called Mut E; not shown: histidine tag from the pADL-22c vector) scFv: DIQMIQSQKFMSTSVGDRVTVTCKASQNVGTNVAWYQQKPGQSPNALIYSASYRYSGVPDRFTGSGSGTDFTLTITNVQSEDLADYFCQQYNSYPLTFGTGTKLDLKGGGGSGGGGSGGGGSVQLQQSGAELVKPGASVKLSCKASGYTFTNYFIHWVKQRPGQGLEWIGEINPKNGDTGFNEKFESRATLTVDKSSSTAYMQLSSLTSEDSAIYYCTRSPYGNNYGFTYWGPGTLVTVSA | 0.0907
Mutant F scFv, scFv(E183V, E186K, G223R) (scFv, VL-linker-VH; histidine-tagged, from E. coli BL21; also called Mut F; not shown: histidine tag from the pADL-22c vector) scFv: DIQMIQSQKFMSTSVGDRVTVTCKASQNVGTNVAWYQQKPGQSPNALIYSASYRYSGVPDRFTGSGSGTDFTLTITNVQSEDLADYFCQQYNSYPLTFGTGTKLDLKGGGGSGGGGSGGGGSVQLQQSGAELVKPGASVKLSCKASGYTFTNYFIYWVKQRPGQGLEWIGEINPRNGDTDFNVKFKSRATLTVDKSSSTAYMQLSSLTSEDSAIYYCTRSPYRNNYGFTYWGQGTLVTVSA | 0.285
Mutant C scFv, scFv(S50N, Y53H) (scFv, VL-linker-VH; histidine-tagged, from E. coli BL21; also called Mut C; not shown: histidine tag from the pADL-22c vector) scFv: DIQMIQSQKFMSTSVGDRVTVTCKASQNVGTNVAWYQQKPGQSPNALIYNASHRYSGVPDRFTGSGSGTDFTLTITNVQSEDLADYFCQQYNSYPLTFGTGTKLDLKGGGGSGGGGSGGGGSVQLQQSGAELVKPGASVKLSCKASGYTFTNYFIYWVKQRPGQGLEWIGEINPRNGDTDFNEKFESRATLTVDKSSSTAYMQLSSLTSEDSAIYYCTRSPYGNNYGFTYWGQGTLVTVSA | 0.159

Proceeding to the next binder to report its average binding response (wavelength shift).
Value lookup for average binding response (wavelength shift); key = Mutant D scFv, scFv(Y156H) (scFv, VL-linker-VH; histidine-tagged, from E. coli BL21; also called Mut D; not shown: histidine tag from the pADL-22c vector) scFv: DIQMIQSQKFMSTSVGDRVTVTCKASQNVGTNVAWYQQKPGQSPNALIYSASYRYSGVPDRFTGSGSGTDFTLTITNVQSEDLADYFCQQYNSYPLTFGTGTKLDLKGGGGSGGGGSGGGGSVQLQQSGAELVKPGASVKLSCKASGYTFTNYFIHWVKQRPGQGLEWIGEINPRNGDTDFNEKFESRATLTVDKSSSTAYMQLSSLTSEDSAIYYCTRSPYGNNYGFTYWGQGTLVTVSA 0.133
